Assay Protocol: human hepatoma cell viability loss – ATP luminescence, cytotoxicity control for P. falciparum antimalarial project, primary screen (AID 2303)
Condition Notes: HepG2 viability, 24-48 h, at 10 µM, stronger effect = higher value
Label TRUE when inhibition < 20%; otherwise FALSE.

Is the reported inhibition for Clc1ccc(CCNCCCCCCNCCc2ccc3c(c2)OCO3)cc1 strictly below 20%?
FALSE

Is the reported inhibition for CC(C)Cc1nc(N2CCOCC2)c2nnn(Cc3ccccc3)c2n1 strictly below 20%?
TRUE

Is the reported inhibition for O=C(NCc1ccco1)c1ccc(S(=O)(=O)c2ccc(Cl)cc2)cc1 strictly below 20%?
TRUE

Is the reported inhibition for Cc1nc(-c2nc(NCCc3c(C)noc3C)ncc2-c2ccsc2)sc1C strictly below 20%?
TRUE

Is the reported inhibition for Cc1[nH]cnc1-c1cccc(NC(=O)c2cc3ccccc3s2)c1 strictly below 20%?
TRUE

Is the reported inhibition for COc1c(C2CCN(CCCCNC(=O)c3cc(-c4ccc(Cl)cc4)[nH]c3C)CC2)ccc2c1CCCC2 strictly below 20%?
FALSE

Is the reported inhibition for CC(C)(C)c1ccc(CNC(=O)c2cc(CNC3CCNC3)ccc2O)cc1 (stereo not given) strictly below 20%?
TRUE

Is the reported inhibition for COc1ccc(C2CCN(CCCCNC(=O)c3ccc(NC(=O)c4ccc(Cl)cc4)cc3)C2)c(OC)c1 (stereo not given) strictly below 20%?
TRUE

Is the reported inhibition for CCCNC(=O)c1ccnc(-c2ccc(CNC3Cc4ccccc4C3)cc2)c1 strictly below 20%?
FALSE

Is the reported inhibition for COc1ccc(-c2cccc(NC(=O)c3cccc(C#N)c3)c2)cc1CN1CCN(C)CC1 strictly below 20%?
FALSE

Is the reported inhibition for CC1CN(Cc2ccc(-c3ccc(-c4nc5ccccc5[nH]4)cc3)cc2)CC(C)O1 (stereo not given) strictly below 20%?
FALSE

Is the reported inhibition for Cn1c(=N)n(CC(=O)OCc2ccc(OCc3ccccc3)cc2)c2ccccc21 strictly below 20%?
TRUE

Is the reported inhibition for CC(=O)NC1=NC(C)(C)N(OCc2ccc(Cl)c(Cl)c2)C(NC(C)=O)=N1 strictly below 20%?
FALSE

Is the reported inhibition for CN1CCC(N2CCC(Oc3cccc(C(=O)NCCCC4CCCC4)c3)CC2)CC1 strictly below 20%?
FALSE

Is the reported inhibition for Brc1cc(CNCCCNc2nc3ccccc3[nH]2)sc1Br strictly below 20%?
TRUE

Is the reported inhibition for Cc1cc(N2CCN(C)CC2)nc2ccc(NC(=O)c3cccc(N(C)C)c3)cc12 strictly below 20%?
TRUE

Is the reported inhibition for COc1ccccc1CNc1ncc(-c2ccsc2)c(-c2nccs2)n1 strictly below 20%?
TRUE

Is the reported inhibition for CS(=O)(=O)c1ccc(CNCc2ccc(-c3cccc(-c4nc5ccc(F)cc5[nH]4)c3)cc2)cc1 strictly below 20%?
FALSE

Is the reported inhibition for CC1(C)N=C(N)N=C(N)N1OCC1COc2ccccc2O1 (stereo not given) strictly below 20%?
FALSE

Is the reported inhibition for Cc1[nH]nc2cc(Nc3ccnc(Nc4ccc(CN5CCOCC5)cc4)n3)ccc12 strictly below 20%?
FALSE

Is the reported inhibition for C=Cc1ccc(-c2c(C)[nH]c(C)c(Br)c2=O)cc1 strictly below 20%?
TRUE

Is the reported inhibition for CNC(=O)c1ccccc1Nc1nc(Nc2cccnc2)ncc1C strictly below 20%?
TRUE

Is the reported inhibition for Cc1cc(N)c2cc(NC(=O)c3cc4ccccc4s3)ccc2n1 strictly below 20%?
FALSE

Is the reported inhibition for CCN(CC)CCCN(C(=O)c1cc2c(C)nn(-c3ccccc3)c2s1)c1nc(-c2ccc(OC)cc2)cs1 strictly below 20%?
TRUE

Is the reported inhibition for O=C(NC1CCN(Cc2ccccc2)CC1)c1cccc(-c2cc3cc(Cl)c(Cl)cc3[nH]2)c1 strictly below 20%?
TRUE

Is the reported inhibition for CC(C)CNCc1cccc(-c2cccc(CN(CCCN3CCN(C)CC3)C(=O)Nc3ccccc3)c2)c1 strictly below 20%?
FALSE

Is the reported inhibition for CCCCN1C(=O)[C@H]2CC(=O)CC(C3CCCCC3)[C@H]2C1=O (stereo not given in full) strictly below 20%?
TRUE

Is the reported inhibition for O=[N+]([O-])c1ccc(C2=NN(S(=O)(=O)c3c(Cl)cc(Cl)cc3Cl)CCCC2)cc1 strictly below 20%?
TRUE

Is the reported inhibition for CC(C)C[C@@H](/C=N/N1CCOC1=O)NC(=O)[C@H](CC(C)C)NC(=O)c1ccc(OCCN2CCOCC2)cc1 strictly below 20%?
TRUE

Is the reported inhibition for CCC[C@@H]([C@@H](CC1CCCCC1)C(=O)N[C@@H](CCCCNS(C)(=O)=O)C(=O)Nc1nccs1)N(O)C=O strictly below 20%?
TRUE

Is the reported inhibition for O=C(CCn1cncn1)N1CCCC(c2[nH]c3ccccc3c2-c2ccncc2)C1 (stereo not given) strictly below 20%?
TRUE

Is the reported inhibition for O=C(COC(=O)c1cccc(S(=O)(=O)N2CCc3ccccc32)c1)NNC(=O)c1cccs1 strictly below 20%?
TRUE

Is the reported inhibition for O=C(/C=C/c1ccc(Cl)c(Cl)c1)NCCCCCN1CCCN(C(=O)Nc2ccc(Cl)c(Cl)c2)CC1 strictly below 20%?
FALSE

Is the reported inhibition for COc1ccc(Br)cc1/C=C/C(=O)Nc1ccc(C2CCCN(C)C2)cc1 (stereo not given) strictly below 20%?
TRUE

Is the reported inhibition for COc1ccc(Cn2c(Nc3cccc(C(F)(F)F)c3)nc3cc(C(=O)NCCN4CCCC4)ccc32)cc1Cl strictly below 20%?
TRUE

Is the reported inhibition for Cc1ccc2c(NN=CC=Cc3ccccc3)cc(C)nc2c1 strictly below 20%?
TRUE

Is the reported inhibition for Cc1ccc(C(=O)Nc2cccc(CN3CCCN(Cc4ccc(O)cc4)CC3)c2)cc1 strictly below 20%?
TRUE

Is the reported inhibition for CC(C)(C)C1CCC(C(=O)c2ccc3ccccc3c2O)CC1 (stereo not given) strictly below 20%?
TRUE

Is the reported inhibition for FC(F)(F)c1ccc2nccc(NCc3ccccc3)c2c1 strictly below 20%?
TRUE

Is the reported inhibition for CC1=C(C(=O)Nc2cc3cn[nH]c3cc2F)C(c2cccc(O)c2F)CC(=O)N1 (stereo not given) strictly below 20%?
TRUE
